Parameter: pIC50. Scope: all listed entries.
Test system: PC-3
Test: Antiproliferative activity against human PC-3 cells incubated for 48 hrs by colorimetric method
Assay type: functional, cell-based
Conditions: PC-3, 48 h
Field pIC50 (float): negative decimal logarithm of the concentration in molar.

Please review the entries below; each comes with its answer.
[[record]]
chemical_structure = "O=C(/C=C/c1cccc(S(=O)(=O)Nc2ccccc2)c1)NO"
observation_type = "pIC50"
endpoint_result = 5.60

[[record]]
chemical_structure = "O=C(/C=C/c1ccc2c(=O)n(Cc3ccc(Cl)cc3)cnc2c1)NO"
observation_type = "pIC50"
endpoint_result = 6.17


// next entry
Quick one: pIC50 for `Cc1ccc(Cn2cnc3cc(/C=C/C(=O)NO)ccc3c2=O)cc1` ? 6.17
